target.entity: Kappa-type opioid receptor (Homo sapiens)
Sequence (P41145 whole entry): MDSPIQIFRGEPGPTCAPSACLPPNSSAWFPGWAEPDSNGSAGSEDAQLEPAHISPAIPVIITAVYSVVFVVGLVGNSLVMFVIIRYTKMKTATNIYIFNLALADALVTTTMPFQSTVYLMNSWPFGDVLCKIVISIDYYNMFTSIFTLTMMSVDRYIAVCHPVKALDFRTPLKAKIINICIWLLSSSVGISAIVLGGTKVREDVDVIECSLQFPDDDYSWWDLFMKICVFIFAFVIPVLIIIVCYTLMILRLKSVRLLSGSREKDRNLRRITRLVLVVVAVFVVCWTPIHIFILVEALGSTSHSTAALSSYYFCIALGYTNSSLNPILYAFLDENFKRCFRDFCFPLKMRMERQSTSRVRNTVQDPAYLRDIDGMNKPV
assay.details: Antagonist activity at KOR (unknown origin) expressed in HTLA cells assessed as inhibition of Sal A-induced beta-arrestin recruitment preincubated for overnight followed by Sal-A addition at 30 mins post compound treatment measured after 20 mins by Bright-Glo luminescence assay
Format: cell-based
assay.readout: pKi
In simple prose, pKi is minus the logarithm base ten of a concentration in moles per litre.

Lookup: Recall the reported pKi of Oc1cccc(C(O)CNCc2ccc(Cl)cc2Cl)c1 (stereo unspecified) on Kappa-type opioid receptor (Homo sapiens) and write it down.
Found: 6.64

* * *

target.entity: Kappa-type opioid receptor (Homo sapiens)
assay.details: Displacement of 3H-U69593 from human KOR expressed in HEK293 cells after 90 mins by micro beta scintillation counting analysis
Format: cell-based
reported.conditions: read-out: Ki
What log10(Ki) was measured for each of the following?
Hello, just confirming the data are log10 of Ki with units of µM.

Lookup: Please report the measured log10(Ki) for CC(CCc1ccc(O)cc1)NCCc1ccccc1 (stereo unspecified)
Found: 0.82

Lookup: Please report the measured log10(Ki) for Cc1cc2oc(C(=O)NCC(c3ccco3)N3CCCC3)c(C)c2cc1C (stereo unspecified)
Found: 0.04

Lookup: Please report the measured log10(Ki) for CCN(Cc1csc(C)n1)C(C)c1cccc(O)c1 (stereo unspecified)
Found: -0.20

Lookup: Please report the measured log10(Ki) for Cc1ccc(-c2ccccc2CN2CC3CNCC3C2)o1 (stereo unspecified)
Found: 0.48

Lookup: Please report the measured log10(Ki) for Oc1cccc(C(O)CNCc2ccc(Cl)cc2Cl)c1 (stereo unspecified)
Found: -1.05

Lookup: Please report the measured log10(Ki) for Cc1c(C(=O)NCC(c2ccco2)N2CCCC2)oc2ccc(Cl)cc12 (stereo unspecified)
Found: -0.28

Lookup: Please report the measured log10(Ki) for Oc1ccc(CCC2CCCCN2Cc2ccc(Cl)o2)cc1 (stereo unspecified)
Found: -0.30

Lookup: Please report the measured log10(Ki) for "Oc1cccc(CNCc2cc3ccccc3[nH]2)c1"
Found: -0.15

Lookup: Please report the measured log10(Ki) for NC1CCc2cc(O)ccc2C1 (stereo unspecified)
Found: 0.92

Lookup: Please report the measured log10(Ki) for c1ccc(CN2CCC(Nc3nc4ccccc4o3)C2)cc1 (stereo unspecified)
Found: 0.41

Lookup: Please report the measured log10(Ki) for Cc1ccc(C(CNC(=O)c2oc3ccccc3c2C)N2CCCC2)o1 (stereo unspecified)
Found: -0.42
